inhibition for assorted compounds
# Test system: Tyrosine-protein kinase ABL1 (Homo sapiens), P00519 [H396P]
# condition.info: at 1 µM
Field: numeric (%). Do not append units.

Solved entries (count: 6):
[
  {
    "compound": "COc1c(C(N)=O)cc(-c2ccc(Cl)cc2)cc1-c1ccc(S(N)(=O)=O)cc1",
    "metric": "inhibition",
    "unit.of.measure": "%",
    "measured.value": 5.78
  },
  {
    "compound": "COc1cc(N2CCN(C(C)C)CC2)ccc1Nc1nc(Nc2cccc3ncccc23)c2cc[nH]c2n1",
    "metric": "inhibition",
    "unit.of.measure": "%",
    "measured.value": 3.86
  },
  {
    "compound": "Cc1cc(O)cc(C)c1/C=C/c1cncc(C(N)=O)c1",
    "metric": "inhibition",
    "unit.of.measure": "%",
    "measured.value": 70.1
  },
  {
    "compound": "c1cnn2ncc(-c3ccnc(NCCCN4CCOCC4)n3)c2c1",
    "metric": "inhibition",
    "unit.of.measure": "%",
    "measured.value": 3.75
  },
  {
    "compound": "COc1ccccc1-c1cc(/C=C2\\C(=O)Nc3ncc(Br)cc32)cc(Br)c1O",
    "metric": "inhibition",
    "unit.of.measure": "%",
    "measured.value": 21.9
  },
  {
    "compound": "CC1=C(C(=O)Nc2ccc3[nH]ncc3c2)C(c2ccc(F)cc2)N=C(c2ccc(C(F)(F)F)nc2)N1 (stereo unspecified)",
    "metric": "inhibition",
    "unit.of.measure": "%",
    "measured.value": 1.95
  }
]

"O=C1Nc2ccccc2/C1=C1\CCc2cc(O)ccc21" has a reported inhibition of 15

"Fc1cccc(COc2ccc(Nc3ncncc3C#Cc3ccccc3)cc2Cl)c1" has a reported inhibition of 4.02

"COc1cc(Nc2ncc(-c3ccccc3)o2)cc(OC)c1" has a reported inhibition of 39.7

"OCCCNc1nccc(-c2c(-c3ccc(F)cc3)nn3cc(C(F)(F)F)ccc23)n1" has a reported inhibition of 3.33

"CCCNc1cccc(-n2ncc3c(N/N=C/c4ccncc4)ncnc32)c1" has a reported inhibition of 86

"CNC(=O)c1cncc(/C=C/c2ccccc2C)c1" has a reported inhibition of 28.8

---

# target.or.test.system: Calcium/calmodulin-dependent protein kinase type II subunit delta (Homo sapiens) (UniProt Q13557);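 further: percent inhibition values are means, taken from the GSK PKIS kinase profiling set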
# Sequence (Q13557 whole entry): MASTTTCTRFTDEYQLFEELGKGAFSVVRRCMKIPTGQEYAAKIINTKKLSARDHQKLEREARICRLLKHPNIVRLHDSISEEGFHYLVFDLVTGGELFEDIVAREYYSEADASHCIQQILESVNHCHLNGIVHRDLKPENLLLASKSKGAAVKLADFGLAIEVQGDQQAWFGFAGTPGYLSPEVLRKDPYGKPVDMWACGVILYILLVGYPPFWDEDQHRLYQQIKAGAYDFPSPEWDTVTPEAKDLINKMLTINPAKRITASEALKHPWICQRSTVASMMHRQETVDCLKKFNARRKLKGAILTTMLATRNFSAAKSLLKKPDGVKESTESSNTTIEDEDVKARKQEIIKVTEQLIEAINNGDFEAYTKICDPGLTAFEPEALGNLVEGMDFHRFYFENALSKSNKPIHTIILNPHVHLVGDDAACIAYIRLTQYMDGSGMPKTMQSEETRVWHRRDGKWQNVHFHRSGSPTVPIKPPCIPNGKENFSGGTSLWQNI
# condition.info: at 0.1 µM
inhibition for assorted molecules
Field: numeric (%). Do not append units.

Solved entries (count: 9):
[
  {
    "molecule": "Cc1cc(O)cc(C)c1/C=C/c1cncc(C(N)=O)c1",
    "inhibition (%)": 2.47
  },
  {
    "molecule": "CS(=O)(=O)CCNCc1ccc(-c2ccc3ncnc(Nc4ccc(OCc5ccccc5)cc4)c3c2)o1",
    "inhibition (%)": 2.72
  },
  {
    "molecule": "COc1ccc(Nc2ncc(-c3ccccc3)o2)cc1OC",
    "inhibition (%)": 0.93
  },
  {
    "molecule": "CS(=O)(=O)Nc1ccc(-c2cc(-c3ccccc3)cc(C(N)=O)c2N)cc1",
    "inhibition (%)": 0.44
  },
  {
    "molecule": "Cc1c2ccc(N(C)c3ccnc(Nc4cccc(S(N)(=O)=O)c4)n3)cc2nn1C",
    "inhibition (%)": 4.36
  },
  {
    "molecule": "Cc1nnc(-c2cccc(-c3ccc(C(=O)NCC4CC4)cc3)c2)o1",
    "inhibition (%)": 3.26
  },
  {
    "molecule": "NS(=O)(=O)c1cccc(N/C=C2\\C(=O)Nc3ccccc32)c1",
    "inhibition (%)": 5.11
  },
  {
    "molecule": "CC1=C(C(=O)Nc2ccc3[nH]nc(C)c3c2)C(c2ccc(C(F)(F)F)cc2)CC(=O)N1 (stereo not given)",
    "inhibition (%)": 1.76
  },
  {
    "molecule": "c1cnn2ncc(-c3ccnc(NCCCN4CCOCC4)n3)c2c1",
    "inhibition (%)": 3.65
  }
]

Switching to the query record.
"O=C1Nc2ccccc2/C1=C1\CCc2cc(O)ccc21" has a reported inhibition of 6.22
